CONDITION_LABEL: in n-pentanol, 283.15 K
MEASURE_NAME: solubility (mole fraction)
Numbers only.

Task: Query: solubility (mole fraction); subject: O=C1c2cccc(O)c2C(=O)c2c(O)cc(CO)cc21
Result: 8.33e-05

* * *

CONDITION_LABEL: in n-butanol, 308.15 K
MEASURE_NAME: solubility (mole fraction)

Task: Query: solubility (mole fraction); subject: O=C1c2cccc(O)c2C(=O)c2c(O)cc(CO)cc21
Result: 0.000122

* * *

CONDITION_LABEL: in ethanol, 298.15 K
MEASURE_NAME: solubility (mole fraction)
Numbers only.

Task: Query: solubility (mole fraction); subject: O=C1c2cccc(O)c2C(=O)c2c(O)cc(CO)cc21
Result: 3.74e-05
